# experimentalContext: normal subjects; LC/MS/MS assay; mean±sd
Counter-ions that a name gives are not always drawn.
readoutKind: Plasma Free Concentration (µM)
The response must be a number in µM with no trailing unit.

Example molecules with recorded Plasma Free Concentration:
>>> resultnumber("CN1CC(=O)NC1=N [Creatinine]")
74
>>> resultnumber("O=C(O)CNC(=O)c1ccccc1 [Hippurate]")
1.5
>>> resultnumber("Cc1ccc(OS(=O)(=O)O)cc1 [p-Cresol sulfate]")
0.46

Please look at the following molecule next.
Query O=S(=O)(O)Oc1c[nH]c2ccccc12 [Indoxyl sulfate] yields Plasma Free Concentration of 0.13

----------
# Test system: plasma proteins
# test: Free fraction by stable isotope dilution LC/MS/MS assay
# experimentalContext: human, plasma (ultrafiltration)
Where a name gives a salt, the structure may show the parent alone.
readoutKind: fraction unbound
Just the number, please.

>>> resultnumber("O=S(=O)(O)Oc1c[nH]c2ccccc12 [Indoxyl sulfate]")
0.027

Please look at the following compound next.
Query O=C(O)CNC(=O)c1ccccc1 [Hippurate] yields fraction unbound of 0.41

----------
# Tested on: plasma proteins
# Type: in vitro ADME
# experimentalContext: human, plasma (ultrafiltration)
Reported fraction unbound values for a set of compounds
Just the number, please.

Query CC(CC(=O)O)C(=O)O (centres unmarked) [Methylsuccinic acid] yields fraction unbound of 0.11

Query Cn1c(=O)c2c([nH]c(=O)n2C)n(C)c1=O [1,3,7-Trimethyluric acid] yields fraction unbound of 0.09

Query O=C(O)CCCCCCC(=O)O [Suberic acid] yields fraction unbound of 0.07

Query O=C(O)CNC(=O)c1ccccc1 [Hippurate] yields fraction unbound of 0.27

Query Cn1c(=O)[nH]c2[nH]c(=O)n(C)c2c1=O [1,7-Dimethyluric acid] yields fraction unbound of 0.39

----------
# System: plasma proteins
# Format: in vitro ADME
# experimentalContext: human, plasma (ultrafiltration)
Counter-ions that a name gives are not always drawn.
Reported fraction unbound values for a set of compounds
Just the number, please.

Example compounds with recorded fraction unbound:
>>> resultnumber("O=C(O)CCCCC(=O)O")
0.04
>>> resultnumber("O=S(=O)(O)Oc1c[nH]c2ccccc12 [Indoxyl sulfate]")
0.02

Query O=C(O)CNC(=O)c1ccco1 yields fraction unbound of 0.49
